Origin of values: PubChem BioAssay AID1671463

Overview of recorded activation for various compounds
study.target: Atrial natriuretic peptide receptor 1 (Homo sapiens) (UniProt P16066)
Sequence (P16066 whole entry, looked up): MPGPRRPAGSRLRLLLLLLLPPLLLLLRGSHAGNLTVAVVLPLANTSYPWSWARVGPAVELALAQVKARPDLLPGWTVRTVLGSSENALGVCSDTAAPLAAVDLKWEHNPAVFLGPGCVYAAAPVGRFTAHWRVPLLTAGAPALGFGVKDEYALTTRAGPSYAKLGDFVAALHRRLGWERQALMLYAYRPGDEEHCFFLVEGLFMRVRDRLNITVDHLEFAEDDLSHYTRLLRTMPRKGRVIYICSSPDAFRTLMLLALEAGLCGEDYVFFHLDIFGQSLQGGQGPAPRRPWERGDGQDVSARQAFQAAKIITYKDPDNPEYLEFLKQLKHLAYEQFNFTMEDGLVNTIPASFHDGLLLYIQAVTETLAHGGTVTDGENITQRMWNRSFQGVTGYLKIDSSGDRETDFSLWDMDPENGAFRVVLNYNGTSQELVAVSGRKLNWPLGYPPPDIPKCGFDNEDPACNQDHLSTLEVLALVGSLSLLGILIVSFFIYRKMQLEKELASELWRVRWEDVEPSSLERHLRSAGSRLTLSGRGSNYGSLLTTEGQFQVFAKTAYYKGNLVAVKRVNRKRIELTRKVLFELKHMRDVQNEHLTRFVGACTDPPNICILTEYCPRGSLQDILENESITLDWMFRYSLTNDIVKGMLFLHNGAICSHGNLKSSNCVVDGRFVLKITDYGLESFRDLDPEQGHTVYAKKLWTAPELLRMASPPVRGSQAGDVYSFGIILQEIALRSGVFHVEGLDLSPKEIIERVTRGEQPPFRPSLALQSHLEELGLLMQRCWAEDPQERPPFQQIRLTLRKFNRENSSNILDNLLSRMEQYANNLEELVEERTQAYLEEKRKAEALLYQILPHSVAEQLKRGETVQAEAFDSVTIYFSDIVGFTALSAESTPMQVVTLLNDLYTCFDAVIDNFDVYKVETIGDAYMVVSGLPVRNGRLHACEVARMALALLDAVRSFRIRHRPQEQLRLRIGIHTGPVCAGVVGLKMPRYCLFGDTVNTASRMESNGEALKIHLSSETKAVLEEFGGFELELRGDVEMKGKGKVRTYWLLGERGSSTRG
assay.method.text: GC-A stimulated cGMP production enhancers – HEK293 GC-A cells, cGMP TR-FRET, EC30 ANP, primary screen (AID 1671463)
condition: at 10 µM, active compounds read high, 0% at EC30 ANP, 100% saturating ANP
In all, about 370,000 compounds went through this assay and about 520 (0.14%) were called active. The sample holds actives, similar compounds and a random draw of the others, so the mix is not that of the screen.
value.kind: activation (%)

INSERT INTO results (item_smiles, study_target, unit_of_measure, test_result) VALUES
  ('O=C(Oc1ccc2c(c1)CCC2)N1CCOCC1', 'Atrial natriuretic peptide receptor 1 (Homo sapiens) (UniProt P16066)', '%', 4.74),
  ('C#CCCN([C@H](C(=O)OC)C(C)C)S(=O)(=O)c1ccc(F)cc1Br', 'Atrial natriuretic peptide receptor 1 (Homo sapiens) (UniProt P16066)', '%', -5.17),
  ('COCc1c(C(=O)OCc2c(C)noc2C)oc2ccccc12', 'Atrial natriuretic peptide receptor 1 (Homo sapiens) (UniProt P16066)', '%', 2.41);
